assay: Pharmacokinetics of intravenous injection in rats (plasma); type: in vivo; settings: plasma; rat, intravenous (I.V.), 20 mg/kg
experimentalEndpoint: AUC(0-inf) (µg·h/mL)
Number only, in µg·h/mL; omit the unit.

Using the record for `CC1(C)C[C@H]2C3=CC[C@@H]4[C@@]5(C)CC[C@H](O)[C@](C)(CO)[C@@H]5CC[C@@]4(C)[C@]3(C)CC[C@@]2(C)[C@H](O)[C@@H]1O` , report its AUC(0-inf). 142

---

test: Pharmacokinetics of intravenous injection in rats (plasma); type: in vivo; settings: rat, plasma, iv, 50 mg/kg, intravenous (I.V.), 50 mg/kg, read-out: T1/2z (half-life) (converted)
experimentalEndpoint: half-life (h)
Number only, in h; omit the unit.

Using the record for CC1(C)C[C@@H](O)[C@]2(C)CC[C@]3(C)C(=CC[C@@H]4[C@@]5(C)CC[C@H](O)[C@](C)(CO)[C@@H]5CC[C@]43C)[C@@H]2C1 [Soyasapogenol B] , report its half-life. 5.53

---

experiment: Pharmacokinetics of oral administration in rats (plasma); format: in vivo; conditions: plasma; rat, oral (P.O.), 25 mg/kg
experimentalEndpoint: AUC(0-inf) (µg·h/mL)
Number only, in µg·h/mL; omit the unit.

Using the record for CC1(C)C[C@@H](O)[C@]2(C)CC[C@]3(C)C(=CC[C@@H]4[C@@]5(C)CC[C@H](O)[C@](C)(CO)[C@@H]5CC[C@]43C)[C@@H]2C1 [Soyasapogenol B] , report its AUC(0-inf). 111

---

assay: Pharmacokinetics of oral administration in rats (plasma); type: in vivo; conditions: plasma; rat, oral (P.O.), 20 mg/kg; read-out: T1/2z (biological half-life) (converted)
experimentalEndpoint: half-life (h)
Number only, in h; omit the unit.

Using the record for `CC1(C)C[C@H]2C3=CC[C@@H]4[C@@]5(C)CC[C@H](O)[C@](C)(CO)[C@@H]5CC[C@@]4(C)[C@]3(C)CC[C@@]2(C)[C@H](O)[C@@H]1O` , report its half-life. 1.97

---

Assay: Pharmacokinetics of oral administration in rats (plasma)
Assay type: in vivo
Conditions: plasma; rat, oral (P.O.), 25 mg/kg; read-out: T1/2z (biological half-life) (converted)
Protocol: The experiments were performed according to Kamo et al. The rats were divided into three groups (n = 8). All rats were fasted for 14–15 h prior to soyasapogenol A or B administration. All rats were orally administered soyasapogenol A or B via direct stomach intubation. […] The soyasapogenol concentrations in the rat plasma solutions were determined according to the method published in [5]. […] Subsequently, after filtration, the samples were analyzed according to the method published in [5]. […]
experimentalEndpoint: half-life (min)
Number only, in min; omit the unit.

Using the record for CC1(C)C[C@@H](O)[C@]2(C)CC[C@]3(C)C(=CC[C@@H]4[C@@]5(C)CC[C@H](O)[C@](C)(CO)[C@@H]5CC[C@]43C)[C@@H]2C1 [Soyasapogenol B] , report its half-life. 137
